Test system: Tetranychus urticae (OP-resistant strain), 2-spotted spider mite
assay-procedure: 2-spotted spider mite test, dipped infested limabean plants
Type: in vivo
measurement-conditions: 300 ppm; mortality rating after 2 days
observation-type: OP-RESISTANT MITES Adult

Query block: Reported OP-RESISTANT MITES Adult, molecule "N#Cc1c(Br)c(C(F)(F)F)n(CSC2=NCCN2)c1-c1ccc(Cl)cc1" : ____
Result block: 9 (100% kill)

Query block: Reported OP-RESISTANT MITES Adult, molecule "N#Cc1c(Br)c(C(F)(F)F)n(CSC2=NCCCN2)c1-c1ccc(Cl)cc1" : ____
Result block: 9 (100% kill)

Query block: Reported OP-RESISTANT MITES Adult, molecule "CSCn1c(-c2ccc(Cl)cc2)c(C#N)c(Br)c1C(F)(F)F" : ____
Result block: 7 (76-85% kill)

---

System: Heliothis virescens, 3rd instar tobacco budworm
assay-procedure: Tobacco budworm 3rd instar test, dipped cotton cotyledons
Format: in vivo
Set-up: key: 0: no effect; 10-25% kill; 26-35% kill; 36-45% kill; 46-55% kill; 56-65% kill; 66-75% kill; 76-85% kill; 86-99% kill; 9: 100% kill
measurement-conditions: 1000 ppm; mortality rating after 3 days
observation-type: TOBACCO BUDWORM 3rd Instar
Number only, no unit.

Query block: Reported TOBACCO BUDWORM 3rd Instar, molecule "N#Cc1c(Br)c(Br)n(CSC2=NCCCN2)c1Br" : ____
Result block: 0

Query block: Reported TOBACCO BUDWORM 3rd Instar, molecule "N#Cc1c(Br)c(Br)n(CSc2ccccc2)c1-c1ccc(C(F)(F)F)cc1" : ____
Result block: 0

Query block: Reported TOBACCO BUDWORM 3rd Instar, molecule "N#Cc1c(Br)c(C(F)(F)F)n(CSc2nc3ccccc3[nH]2)c1-c1ccc(Cl)cc1" : ____
Result block: 0

---

Test system: Empoasca abrupta, adult, western potato leafhopper
assay-procedure: Western potato leafhopper contact test, dipped limabean leaf
Assay type: in vivo
measurement-conditions: 100 ppm; mortality rating after 2 days
observation-type: LEAFHOPPER Contact

Query block: Lookup: LEAFHOPPER Contact / Empoasca abrupta, adult, western potato leafhopper / "CN(C)C(=S)SCn1c(-c2ccc(Cl)cc2)c(C#N)c(Br)c1C(F)(F)F"
Result block: 9 (100% kill)

Query block: Lookup: LEAFHOPPER Contact / Empoasca abrupta, adult, western potato leafhopper / "CCOC(=S)SCn1c(-c2ccc(Cl)cc2)c(C#N)c(Cl)c1C(F)(F)F"
Result block: 9 (100% kill)

Query block: Lookup: LEAFHOPPER Contact / Empoasca abrupta, adult, western potato leafhopper / "N#Cc1c(Cl)c(C(F)(F)F)n(CSC2=NCCN2)c1-c1ccc(Cl)cc1"
Result block: 9 (100% kill)

Query block: Lookup: LEAFHOPPER Contact / Empoasca abrupta, adult, western potato leafhopper / "CSCn1c(Br)c(Br)c(C#N)c1-c1ccc(C(F)(F)F)cc1"
Result block: 7 (76-85% kill)

Query block: Lookup: LEAFHOPPER Contact / Empoasca abrupta, adult, western potato leafhopper / "CSCn1c(-c2ccc(Cl)cc2)c(C#N)c(Br)c1C(F)(F)F"
Result block: 9 (100% kill)

Query block: Lookup: LEAFHOPPER Contact / Empoasca abrupta, adult, western potato leafhopper / "CC(C)OC(=S)SCn1c(-c2ccc(Cl)cc2)c(C#N)c(Cl)c1C(F)(F)F"
Result block: 9 (100% kill)

Query block: Lookup: LEAFHOPPER Contact / Empoasca abrupta, adult, western potato leafhopper / "N#Cc1c(Br)c(C(F)(F)F)n(CSC2=NCCCN2)c1-c1ccc(Cl)cc1"
Result block: 8 (86-99% kill)

Query block: Lookup: LEAFHOPPER Contact / Empoasca abrupta, adult, western potato leafhopper / "N#Cc1c(Cl)c(C(F)(F)F)n(CSC(=N)N)c1-c1ccc(Cl)cc1"
Result block: 9 (100% kill)

---

System: Spodoptera eridania, 3rd instar larvae, southern armyworm
assay-procedure: Southern armyworm 3rd instar test, dipped limabean leaf
Type: in vivo
measurement-conditions: 10 ppm; rating at 5 days
Give ARMYWORM Day 5 for every item shown.

Query block: Reported ARMYWORM Day 5, compound CCOC(=S)SCn1c(-c2ccc(Cl)cc2)c(C#N)c(Cl)c1C(F)(F)F [Example 23] : ____
Result block: 9 (100% kill)

Query block: Reported ARMYWORM Day 5, compound CSCn1c(Br)c(Br)c(C#N)c1SC [Example 43] : ____
Result block: 0

Query block: Reported ARMYWORM Day 5, compound CN=C(NC)SCn1c(Cl)c(C#N)c(Cl)c1-c1ccc(Cl)c(Cl)c1 [Example 19] : ____
Result block: 0

---

Test system: Diabrotic undecimpunctata howardi, 3rd instar southern corn rootworm
assay-procedure: Southern corn rootworm soil test
Assay type: in vivo
Parameters: key: 0: no effect; 10-25% kill; 26-35% kill; 36-45% kill; 46-55% kill; 56-65% kill; 66-75% kill; 76-85% kill; 86-99% kill; 9: 100% kill
measurement-conditions: 50 (ppm as headed), mortality rating after 6 days
Give SOUTHERN CORN ROOTWORM for every item shown.
Number only, no unit.

Query block: Reported SOUTHERN CORN ROOTWORM, molecule "N#Cc1c(Br)c(Br)n(CSc2ccccc2)c1-c1ccc(C(F)(F)F)cc1" : ____
Result block: 0

Query block: Reported SOUTHERN CORN ROOTWORM, molecule "CN=C(NC)SCn1c(Cl)c(C#N)c(Cl)c1-c1ccc(Cl)c(Cl)c1" : ____
Result block: 0

Query block: Reported SOUTHERN CORN ROOTWORM, molecule "CN=C(NC)SCn1c(Br)c(Br)c(C#N)c1Br" : ____
Result block: 0

Query block: Reported SOUTHERN CORN ROOTWORM, molecule "N#Cc1c(Br)c(C(F)(F)F)n(CSc2ncc[nH]2)c1-c1ccc(Cl)cc1" : ____
Result block: 0

Query block: Reported SOUTHERN CORN ROOTWORM, molecule "N#Cc1c(Br)c(C(F)(F)F)n(CSc2nc3ccccc3[nH]2)c1-c1ccc(Cl)cc1" : ____
Result block: 0

Query block: Reported SOUTHERN CORN ROOTWORM, molecule "CSCn1c(Br)c(Br)c(C#N)c1SC" : ____
Result block: 0

Query block: Reported SOUTHERN CORN ROOTWORM, molecule "N#Cc1c(Br)c(C(F)(F)F)n(CSC2=NCCCN2)c1-c1ccc(Cl)cc1" : ____
Result block: 0

---

System: Spodoptera eridania, 3rd instar larvae, southern armyworm
assay-procedure: Southern armyworm 3rd instar test, dipped limabean leaf
Format: in vivo
measurement-conditions: 10 ppm; rating at 3 days
Give ARMYWORM Day 3 for every item shown.

Query block: Reported ARMYWORM Day 3, molecule "N#Cc1c(Br)c(C(F)(F)F)n(CSC2=NCCS2)c1-c1ccc(Cl)cc1" : ____
Result block: 9 (100% kill)

Query block: Reported ARMYWORM Day 3, molecule "N#Cc1c(Br)c(C(F)(F)F)n(CSC2=NCCCN2)c1-c1ccc(Cl)cc1" : ____
Result block: 0

Query block: Reported ARMYWORM Day 3, molecule "CN(C)C(=S)SCn1c(-c2ccc(Cl)cc2)c(C#N)c(Cl)c1C(F)(F)F" : ____
Result block: 9 (100% kill)

Query block: Reported ARMYWORM Day 3, molecule "CC(C)OP(=S)(OC(C)C)SCn1c(-c2ccc(Cl)cc2)c(C#N)c(Br)c1C(F)(F)F" : ____
Result block: 0

Query block: Reported ARMYWORM Day 3, molecule "CCN(CC)C(=S)SCn1c(-c2ccc(Cl)cc2)c(C#N)c(Br)c1C(F)(F)F" : ____
Result block: 9 (100% kill)

Query block: Reported ARMYWORM Day 3, molecule "N#Cc1c(Br)c(C(F)(F)F)n(CSc2nc3ccccc3o2)c1-c1ccc(Cl)cc1" : ____
Result block: 0

Query block: Reported ARMYWORM Day 3, molecule "CCOC(=S)SCn1c(-c2ccc(Cl)cc2)c(C#N)c(Br)c1C(F)(F)F" : ____
Result block: 9 (100% kill)

Query block: Reported ARMYWORM Day 3, molecule "N#Cc1c(Cl)c(C(F)(F)F)n(CSC2=NCCN2)c1-c1ccc(Cl)cc1" : ____
Result block: 9 (100% kill)

---

Give SOUTHERN CORN ROOTWORM for every item shown.
Test system: Diabrotic undecimpunctata howardi, 3rd instar southern corn rootworm
assay-procedure: Southern corn rootworm soil test
Type: in vivo
Parameters: key: 0: no effect; 10-25% kill; 26-35% kill; 36-45% kill; 46-55% kill; 56-65% kill; 66-75% kill; 76-85% kill; 86-99% kill; 9: 100% kill
measurement-conditions: 50 (ppm as headed), mortality rating after 6 days
Number only, no unit.

Query block: Lookup: SOUTHERN CORN ROOTWORM / Diabrotic undecimpunctata howardi, 3rd instar southern corn rootworm / "CC1(C)CN=C(SCn2c(-c3ccc(Cl)cc3)c(C#N)c(Br)c2C(F)(F)F)NC1"
Result block: 0

Query block: Lookup: SOUTHERN CORN ROOTWORM / Diabrotic undecimpunctata howardi, 3rd instar southern corn rootworm / "N#Cc1c(Br)c(Br)n(CSCc2ccccc2)c1Br"
Result block: 0

Query block: Lookup: SOUTHERN CORN ROOTWORM / Diabrotic undecimpunctata howardi, 3rd instar southern corn rootworm / "CC(=O)SCn1c(Br)c(Br)c(C#N)c1Br"
Result block: 0

Query block: Lookup: SOUTHERN CORN ROOTWORM / Diabrotic undecimpunctata howardi, 3rd instar southern corn rootworm / "N=C(N)SCn1c(-c2ccc(Cl)c(Cl)c2)c(Br)c(C(F)(F)F)c1C(F)(F)F"
Result block: 0

Query block: Lookup: SOUTHERN CORN ROOTWORM / Diabrotic undecimpunctata howardi, 3rd instar southern corn rootworm / "N#Cc1c(Cl)c(C(F)(F)F)n(CSC2=NCCN2)c1-c1ccc(Cl)cc1"
Result block: 0

Query block: Lookup: SOUTHERN CORN ROOTWORM / Diabrotic undecimpunctata howardi, 3rd instar southern corn rootworm / "N#Cc1c(Br)c(Br)n(CSC2=NCCCN2)c1Br"
Result block: 0

Query block: Lookup: SOUTHERN CORN ROOTWORM / Diabrotic undecimpunctata howardi, 3rd instar southern corn rootworm / "N#Cc1c(Br)c(C(F)(F)F)n(CSC2=NCCCCN2)c1-c1ccc(Cl)cc1"
Result block: 0

Origin of values: patent EP0545103A1
